Experiment Summary: solvent given as SMILES
Measurement Context: in CS(C)=O
Measurement Name: emission maximum
Your reply should be a number followed by the unit it is expressed in.

Consider the worked cases shown below.
CCCn1c(-c2cc(-c3nc4ccccc4n3CCC)cc(-c3nc4ccccc4n3CCC)c2)nc2ccccc21	381 nm
COc1ccc(OC)c(C=O)c1	431 nm
Cc1cc2ccccc2c2c1c1ccccc1n2-c1ccc(N(c2ccccc2)c2ccccc2)cc1	428 nm
CCC1(CC)c2cc(N(C)C)ccc2-c2ccc(C(F)(F)F)cc21	414 nm
COc1ccc(/C=C/C(=O)c2ccccc2O)cc1OC	480 nm
O=C1CC(=O)Nc2cc(C(=O)O)ccc2N1	407 nm
CN1/C(=C/C=C(/C=C/c2sc3ccccc3[n+]2C)c2ccccc2)Sc2ccccc21	683 nm
O=c1oc2ccc(Cl)cc2cc1-c1cc2cc(Cl)ccc2o1	488 nm

Query compound follows.
Entry C1=Nc2cccc3cccc(c23)N1 ; emission maximum = 482 nm

---

Experiment Summary: solvent given as SMILES
Measurement Context: in CCOC(C)=O
Known emission maximum of a selection of compounds
Quick reminder: number only, in nm, skip the unit.

Consider the worked cases shown below.
CCn1c2ccccc2c2cc(-c3cc(-c4ccc5c(c4)c4ccccc4n5CC)nc(-c4ccc(C#N)cc4)n3)ccc21	408
CC1=CC(C)=[N+]2C1=C(c1ccccc1)c1c(C)cc(C)n1[B-]2(F)F	510
COc1ccc2c3c(cccc13)C(=O)c1ccccc1-2	506.07

Entry COC(=O)c1nc(-c2cccc3ccccc23)oc1C ; emission maximum = 342

Entry CC(C)(C)NC1=C2C=CC=[N+]2[B-](F)(F)n2cccc21 ; emission maximum = 498

Entry CCN(CC)c1ccc(/C=C/C(=O)c2c(O)cc(C)oc2=O)cc1 ; emission maximum = 545

---

Experiment Summary: solvent given as SMILES
Measurement Context: in ClCCl
Measurement Name: emission maximum (nm)
Quick reminder: number only, in nm, skip the unit.

COc1ccccc1C1=[N+]2C(=C(c3ccccc3)c3c4c(c(-c5ccccc5OC)n3[B-]2(F)F)C2C=CC4CC2)C2=C1C1C=CC2CC1 (stereo not drawn)	587

Entry Oc1ccccc1/N=C/c1ccccc1Oc1ccccc1 ; emission maximum = 415

Entry CCCCCCc1ccc2c3c(ccc2c1)O[B-](c1ccccc1)(c1ccccc1)[N+](c1ccc([N+]2=Cc4c(ccc5cc(CCCCCC)ccc45)O[B-]2(c2ccccc2)c2ccccc2)cc1)=C3 ; emission maximum = 568

Entry COc1ccc(-c2nc(-c3ccccc3O)c(-c3ccccc3O)n2-c2ccc(C)cc2)cc1 ; emission maximum = 347

---

Experiment Summary: solvent given as SMILES
Measurement Context: in ClCCl
Measurement Name: emission maximum (nm)
Quick reminder: number only, in nm, skip the unit.

Consider the worked cases shown below.
CC1(C)c2ccccc2-c2cc3c(cc21)c1ccccc1n3-c1ccc2ccccc2n1	438
CCN(CC)c1ccc(/C=N/CC/N=C/c2ccc(N(CC)CC)cc2O)c(O)c1	432
O=S1(=O)C2=C(c3ccc(N(c4ccccc4)c4ccccc4)cc31)C1(C3=C(c4ccccc41)S(=O)(=O)c1cc(N(c4ccccc4)c4ccccc4)ccc13)c1ccccc12	577
CC(C)[Si](C#Cc1c2cc3ccccc3cc2c(C#Cc2ccc(F)cc2)c2cc3ccccc3cc12)(C(C)C)C(C)C	660
COc1ccc(C#Cc2c(C#Cc3ccc(OC)cc3)c(C#Cc3ccc(OC)cc3)c(C#Cc3ccc(OC)cc3)c(C#Cc3ccc(OC)cc3)c2C#Cc2ccc(OC)cc2)cc1	466

Entry Cc1cn2cc(-c3ccc(C#N)cc3)[n-][n+]2c1 ; emission maximum = 518

Entry O=C1c2ccccc2-c2nc3c4ccccc4c4ccccc4c3n21 ; emission maximum = 616

Entry COc1ccc(-c2cccc3ncc(-c4ccc(C#N)cc4)n23)cc1 ; emission maximum = 447

Entry c1cc(-c2ccc(-n3c4ccccc4c4ccccc43)cc2)c2nsnc2c1 ; emission maximum = 537
